Biological target: T1, LHRH binding sites on EFO-27 human ovarian cancer cells (human)
T1 chain: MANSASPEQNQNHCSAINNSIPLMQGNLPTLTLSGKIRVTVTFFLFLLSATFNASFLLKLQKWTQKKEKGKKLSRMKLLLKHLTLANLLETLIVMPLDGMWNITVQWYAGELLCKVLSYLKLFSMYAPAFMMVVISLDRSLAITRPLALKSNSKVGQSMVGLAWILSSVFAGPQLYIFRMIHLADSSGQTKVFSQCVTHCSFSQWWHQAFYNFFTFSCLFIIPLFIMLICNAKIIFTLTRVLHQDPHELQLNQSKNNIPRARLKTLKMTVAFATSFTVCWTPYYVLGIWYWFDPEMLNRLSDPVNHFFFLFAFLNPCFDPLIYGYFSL
Test: competition with [125I-Tyr8]BRU-2477 on EFO-27 cells
Non-standard residues stand in square brackets, D forms with d. Primed or numbered codes have the meaning given here. DO3A10CM(3) = metal chelator group attached at the N-terminus (X in table rows); DO3A10CM″ = chelating group at the N-terminus (X in the sequence tables); Bpa = N[C@@H](Cc1ccc(C(=O)c2ccccc2)cc1)C(=O)O; d2Nal = N[C@H](Cc1ccc2ccccc2c1)C(=O)O; DO3A10CM = not defined here; Tha = not defined here; azaGly = NNC(=O)O; Sar = CNCC(=O)O
Rule: EC50 below 6 µM gives Criterion met, anything at or above gives Criterion not met.

| Binder | Answer Label |
| --- | --- |
| {DO3A10CM(3)}-[Sar]HWSY[dR]W[Bpa]P[azaGly]-NH2 (AA5 Tyr) [BRU-2668] | Criterion met |
| DO3A10CM-[d2Nal]RWSA[dR]W[Bpa]P[azaGly]-NH2 (reading uncertain, AA5 Ala) [BRU-3028] | Criterion met |
| {DO3A10CM(3)}-[Sar]HWSY[dR]L[Bpa]P[azaGly]-NH2 (AA5 Tyr, AA7 Leu) [BRU-2670] | Criterion not met |
| {DO3A10CM″}-[Sar]WS[Tha][dR]W[Bpa]P[azaGly]-NH2 (reading uncertain) [BRU-2740] | Criterion met |
| DO3A10CM-[d2Nal]RWSL[dR]W[Bpa]P[azaGly]-NH2 (reading uncertain, AA5 Leu) [BRU-3029] | Criterion met |
| DO3A10CM-[Sar]HWS[Tha][dR]W[Bpa]P[azaGly]-NH2 (reading uncertain) [BRU-2769] | Criterion not met |
